FYI, the data here is from PubChem BioAssay (NCATS).

Experiment: Primary qHTS for Vero E6 cytotoxicity: counterscreen for inhibitors of SARS-S pseudo-typed particle cell entry (AID 1479150)
Conditions: cell viability; series mostly up to 57.1 µM
Inconclusive results are not listed. Calls of active or inactive are those of the source. Calls come from the whole dose curve.
measured quantity: outcome

// below: answered compounds
compound	outcome
CC#C[C@]1(O)CC[C@H]2[C@@H]3CCC4=CC(=O)CCC4=C3[C@@H](c3ccc(N(C)C)cc3)C[C@@]21C	inactive
CCOC(=O)Nc1ccc2c(c1)N(C(=O)CCN1CCOCC1)c1ccccc1S2	inactive
CC(C)NCC(O)COc1ccc(CCOCC2CC2)cc1 (stereo not given)	inactive
CN(C)c1nc(N(C)C)nc(N(C)C)n1	inactive
CC1Cc2ccccc2N1NC(=O)c1ccc(Cl)c(S(N)(=O)=O)c1 (stereo not given)	inactive

// next item, outcome requested
Qu. Fill in reported outcome for this entry: NC(=O)OCC(COC(N)=O)c1ccccc1
Ans. inactive
